Target: human CD33 F118A (human, UniProt P20138 18-364)
Sequence (P20138 18-364 F118A limits assumed): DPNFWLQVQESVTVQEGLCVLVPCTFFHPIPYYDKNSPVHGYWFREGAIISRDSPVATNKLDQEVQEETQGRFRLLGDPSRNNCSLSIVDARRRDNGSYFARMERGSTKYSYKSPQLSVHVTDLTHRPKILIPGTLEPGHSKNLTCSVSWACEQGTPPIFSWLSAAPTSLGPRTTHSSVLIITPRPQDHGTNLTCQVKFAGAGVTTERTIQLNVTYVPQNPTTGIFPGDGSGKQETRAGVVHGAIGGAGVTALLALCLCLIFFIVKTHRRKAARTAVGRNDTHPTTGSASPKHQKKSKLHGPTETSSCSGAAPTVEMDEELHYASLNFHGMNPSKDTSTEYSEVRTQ
Assay: flow cytometry on HEK293-T, alanine scan
Examples of binders with documented Mean % WT Binding follow.
Only the number, expressed in % WT binding, is required.

Solved cases below.
- binder: "Refmab #2 (antibody, V domains shown, The alanine scan used IgG or Fab) VH: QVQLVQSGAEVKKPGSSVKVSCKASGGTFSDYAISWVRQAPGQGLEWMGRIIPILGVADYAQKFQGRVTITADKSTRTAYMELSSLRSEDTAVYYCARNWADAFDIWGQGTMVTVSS VL: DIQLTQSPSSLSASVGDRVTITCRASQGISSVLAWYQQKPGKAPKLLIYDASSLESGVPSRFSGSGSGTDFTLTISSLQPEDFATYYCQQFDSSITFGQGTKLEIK"
  Mean % WT Binding [% WT binding]: 0.6
- binder: "Refmab #4 (antibody, V domains shown, The alanine scan used IgG or Fab) VH: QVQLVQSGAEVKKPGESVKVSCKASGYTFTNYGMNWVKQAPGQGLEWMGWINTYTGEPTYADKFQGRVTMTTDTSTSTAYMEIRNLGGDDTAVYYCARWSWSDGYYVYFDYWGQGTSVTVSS VL: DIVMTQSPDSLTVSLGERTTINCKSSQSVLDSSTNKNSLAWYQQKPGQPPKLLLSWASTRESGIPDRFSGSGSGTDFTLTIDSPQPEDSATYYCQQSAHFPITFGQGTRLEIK"
  Mean % WT Binding [% WT binding]: 6
- binder: "Refmab #1 (antibody, V domains shown, The alanine scan used IgG or Fab; also called hP67.6) VH: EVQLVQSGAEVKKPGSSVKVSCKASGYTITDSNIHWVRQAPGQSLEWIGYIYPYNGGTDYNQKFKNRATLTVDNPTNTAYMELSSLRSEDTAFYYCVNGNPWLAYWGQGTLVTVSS VL: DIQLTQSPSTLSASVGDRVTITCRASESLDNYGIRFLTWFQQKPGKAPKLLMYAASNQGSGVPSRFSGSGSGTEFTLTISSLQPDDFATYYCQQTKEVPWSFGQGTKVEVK"
  Mean % WT Binding [% WT binding]: 0.1

Query: Mean % WT Binding; subject: Refmab #3 (antibody, V domains shown, The alanine scan used IgG or Fab) VH: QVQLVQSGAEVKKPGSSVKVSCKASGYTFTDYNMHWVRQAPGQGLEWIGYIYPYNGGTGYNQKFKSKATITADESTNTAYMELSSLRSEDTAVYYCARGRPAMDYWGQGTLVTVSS VL: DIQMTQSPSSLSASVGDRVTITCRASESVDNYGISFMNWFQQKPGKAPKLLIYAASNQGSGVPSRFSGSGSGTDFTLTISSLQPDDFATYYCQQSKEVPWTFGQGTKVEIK
8.2
